biological target: JAK3 (recombinant human kinase domain; h-jak3(810-1124)) (Homo sapiens); construct: h-jak3(810- 1124)-sf9-c; made in house; host or cells: Sf9 insect cells; assay: Determination of IC50 of Janus Kinase (JAK) inhibition: JAK3, radioactive end-point assay with 33P-ATP; format: biochemical; conditions: JAK3 kinase domain; ATP 1.5 uM, peptide 50 uM, 20 minutes, room temperature, 10% DMSO; read-out: Ic50 h-jak3(810-1124)-sf9-c:no additive
I'd appreciate it if you could supply log10 of IC50 values for the items below.
Note the log scale: values are log10 of IC50 expressed in nM.

Below are worked cases with known answers.
CC(Cn1cccn1)NC(=O)c1ccc(-c2cnc3[nH]cc(C(=O)N[C@@H](C)C(C)(C)C)c3n2)s1 (stereo partly drawn) : -0.49
C[C@H](NC(=O)c1c[nH]c2ncc(-c3ccccn3)nc12)C(C)(C)C : 1.00
C[C@H](NC(=O)c1c[nH]c2ncc(-c3ccc(C(=O)NCc4c(F)cccc4Cl)s3)nc12)C(C)(C)C : -0.22
CC(NC(=O)c1ccc(-c2cnc3[nH]cc(C(=O)N[C@@H](C)C(C)(C)C)c3n2)s1)c1ccc(F)cc1 (stereo partly drawn) : -0.34
C[C@@H](NC(=O)c1c[nH]c2ncc(C3=CCOCC3)nc12)C(C)(C)O : 1.66
Cc1cccc(-n2cnc(-c3cnc4[nH]cc(C(=O)N[C@@H](C)C(C)(C)C)c4n3)c2)c1 : 0.71
C[C@H](NC(=O)c1c[nH]c2ncc(C3CC3)nc12)[C@@](C)(O)C(F)(F)F : 0.92
C[C@@H](NC(=O)c1c[nH]c2ncc(C3CC3)nc12)C1(C#N)CCCC1 : 1.59
Cc1ccc(CNC(=O)c2ccc(-c3cnc4[nH]cc(C(=O)N[C@@H](C)C(C)(C)C)c4n3)s2)o1 : -0.38
CC(O)CCNC(=O)c1c[nH]c2ncc(C3CC3)nc12 (stereo not drawn) : 2.55

// each listed compound needs a value for log10 of IC50
1. C[C@@H]1C[C@H]1c1cnc2[nH]cc(C(=O)NCC(C)(C)CO)c2n1
2. CC(=O)NC1CCN(C(=O)c2ccc(-c3cnc4[nH]cc(C(=O)N[C@@H](C)C(C)(C)C)c4n3)s2)CC1
3. COC[C@H](NC(=O)c1c[nH]c2ncc(C3CC3)nc12)C(C)(C)C
4. O=C(N[C@H](C1CC1)C1(O)CCCC1)c1c[nH]c2ncc(C3CC3)nc12
5. C[C@H](NC(=O)c1c[nH]c2ncc(-c3ccc(C(=O)Nc4ccc5c(c4)CCCC5)s3)nc12)C(C)(C)C
6. C[C@H](NC(=O)c1c[nH]c2ncc(-c3ccc(C(=O)N4C5CCC4CC5)s3)nc12)C(C)(C)C
7. C[C@@H](NC(=O)c1c[nH]c2ncc(-c3cccs3)nc12)C(C)(C)O

Ans:
[2.08, -0.49, 1.55, 1.21, -0.14, -0.49, 0.86]

###

molecular target: JAK3 (recombinant human kinase domain; h-jak3(810-1124)) (Homo sapiens, UniProt P52333); construct: h-jak3(810- 1124)-sf9-c; made in house; host or cells: Sf9 insect cells; assay: Determination of IC50 of Janus Kinase (JAK) inhibition: JAK3, radioactive end-point assay with 33P-ATP; format: biochemical; details: JAK3 kinase domain; ATP 1.5 uM, peptide 50 uM, 20 minutes, room temperature, 10% DMSO; read-out: Ic50 h-jak3(810-1124)-sf9-c:no additive
Sequence (P52333 810-1124): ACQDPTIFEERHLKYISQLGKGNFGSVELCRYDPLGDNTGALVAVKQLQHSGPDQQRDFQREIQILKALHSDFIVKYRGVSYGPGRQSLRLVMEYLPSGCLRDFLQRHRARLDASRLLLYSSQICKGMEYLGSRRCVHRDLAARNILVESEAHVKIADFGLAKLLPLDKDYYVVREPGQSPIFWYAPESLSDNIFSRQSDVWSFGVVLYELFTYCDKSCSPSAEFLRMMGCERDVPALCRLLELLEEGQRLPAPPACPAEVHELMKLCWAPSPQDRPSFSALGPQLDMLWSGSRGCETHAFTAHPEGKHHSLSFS
measured quantity: IC50
Mention the unit after the number when you answer.

CC[C@H](C)NC(=O)c1c[nH]c2ncc(C3CC3)nc12 : 5.9 nM
O=C(NCC1CCCCC1)c1c[nH]c2ncc(C3CC3)nc12 : 61.3 nM
CC(C)(CCO)NC(=O)c1c[nH]c2ncc(C3CC3)nc12 : 131 nM

Q: Give reported IC50 for CC(NC(=O)c1c[nH]c2ncc(C3CC3)nc12)C1CCOCC1 (stereo not shown) (JAK3 (recombinant human kinase domain; h-jak3(810-1124)) (Homo sapiens, UniProt P52333))
Ans: 72.5 nM

###

target: JAK3 (recombinant human kinase domain; h-jak3(810-1124)) (Homo sapiens, UniProt P52333); construct: h-jak3(810- 1124)-sf9-c; made in house; host or cells: Sf9 insect cells; test: Determination of IC50 of Janus Kinase (JAK) inhibition: JAK3, radioactive end-point assay with 33P-ATP; type: biochemical; settings: JAK3 kinase domain; ATP 1.5 uM, peptide 50 uM, 20 minutes, room temperature, 10% DMSO; read-out: Ic50 h-jak3(810-1124)-sf9-c:no additive
measured quantity: pIC50
Give bare numbers, as −log10 of the molar value.

Below are worked cases with known answers.
C[C@H](NC(=O)c1c[nH]c2ncc(C3CC3)nc12)C1(C#N)CCCC1 : 7.92
C[C@H](NC(=O)c1c[nH]c2ncc(-c3ccc(C(=O)N4CCCCC4)s3)nc12)C(C)(C)C#N : 9.44
C[C@H](NC(=O)c1c[nH]c2ncc(-c3ccc(C(=O)NCC#N)s3)nc12)C(C)(C)C : 9.85

// each listed molecule needs a value for pIC50
1. Cc1ccccc1CNC(=O)c1ccc(-c2cnc3[nH]cc(C(=O)N[C@@H](C)C(C)(C)C)c3n2)s1
2. N#CC(NC(=O)c1c[nH]c2ncc(C3CC3)nc12)C1CC1 (stereo not drawn)

Ans:
9.34
7.84

Q: Fill in reported pIC50 for this entry: C[C@H](NC(=O)c1c[nH]c2ncc(-c3ccc(C(=O)N4CCC(C)(O)CC4)s3)nc12)C(C)(C)C
Ans: 10.00

###

target: JAK3 (recombinant human kinase domain; h-jak3(810-1124)) (Homo sapiens, UniProt P52333); construct: h-jak3(810- 1124)-sf9-c; made in house; host or cells: Sf9 insect cells; experiment: Determination of IC50 of Janus Kinase (JAK) inhibition: JAK3, radioactive end-point assay with 33P-ATP; assay type: biochemical; conditions: JAK3 kinase domain; ATP 1.5 uM, peptide 50 uM, 20 minutes, room temperature, 10% DMSO; read-out: Ic50 h-jak3(810-1124)-sf9-c:no additive
I'd appreciate it if you could supply IC50 values for the items below.
One number for each entry, in nM.

C=C(C)c1cnc2[nH]cc(C(=O)N[C@@H](C)C(C)(C)O)c2n1 [Example I-3] : 12.2
C[C@H](NC(=O)c1c[nH]c2ncc(-c3ccc(C(=O)NCc4cccc(C(F)(F)F)c4)s3)nc12)C(C)(C)C [Example I-207] : 0.73
C[C@H](NC(=O)c1c[nH]c2ncc(-c3ccc(C(=O)N4CC(C#N)C4)s3)nc12)C(C)(C)C [Example I-178] : 0.32
C[C@H](NC(=O)c1c[nH]c2ncc(Oc3ccc(F)cc3F)nc12)C(C)(C)O [Example I-125] : 502
C[C@H](NC(=O)c1c[nH]c2ncc(-c3cn(-c4cc(Cl)ccc4F)cn3)nc12)C(C)(C)C [Example I-147] : 2.46

# evaluate next
Q: Fill in reported IC50 for this entry: CC(C)[C@H](NC(=O)c1c[nH]c2ncc(C3CC3)nc12)C(C)(C)O [Example I-24]
Ans: 180

###

I'd appreciate it if you could supply IC50 values for the items below.
molecular target: JAK3 (recombinant human kinase domain; h-jak3(810-1124)) (Homo sapiens, UniProt P52333); construct: h-jak3(810- 1124)-sf9-c; made in house; host or cells: Sf9 insect cells; assay: Determination of IC50 of Janus Kinase (JAK) inhibition: JAK3, radioactive end-point assay with 33P-ATP; format: biochemical; settings: JAK3 kinase domain; ATP 1.5 uM, peptide 50 uM, 20 minutes, room temperature, 10% DMSO; read-out: Ic50 h-jak3(810-1124)-sf9-c:no additive
Give bare numbers, in nM.

CC[C@@H](CO)NC(=O)c1c[nH]c2ncc(C3CC3)nc12 : 128
CCc1cnc2[nH]cc(C(=O)NCC(C)(C)CO)c2n1 : 302
C[C@H](NC(=O)c1c[nH]c2ncc(-c3cccs3)nc12)C(C)(C)O : 3.05

Q: Give reported IC50 for CC(C)[C@H](CO)NC(=O)c1c[nH]c2ncc(C3CC3)nc12 (JAK3 (recombinant human kinase domain; h-jak3(810-1124)) (Homo sapiens, UniProt P52333))
Ans: 9.84
